- Measured on: human-type OT7T022 (Homo sapiens)
- Construct: expressed in transfected cells; host or cells: CHO cells
- Sequence (Q9GZQ6 whole entry): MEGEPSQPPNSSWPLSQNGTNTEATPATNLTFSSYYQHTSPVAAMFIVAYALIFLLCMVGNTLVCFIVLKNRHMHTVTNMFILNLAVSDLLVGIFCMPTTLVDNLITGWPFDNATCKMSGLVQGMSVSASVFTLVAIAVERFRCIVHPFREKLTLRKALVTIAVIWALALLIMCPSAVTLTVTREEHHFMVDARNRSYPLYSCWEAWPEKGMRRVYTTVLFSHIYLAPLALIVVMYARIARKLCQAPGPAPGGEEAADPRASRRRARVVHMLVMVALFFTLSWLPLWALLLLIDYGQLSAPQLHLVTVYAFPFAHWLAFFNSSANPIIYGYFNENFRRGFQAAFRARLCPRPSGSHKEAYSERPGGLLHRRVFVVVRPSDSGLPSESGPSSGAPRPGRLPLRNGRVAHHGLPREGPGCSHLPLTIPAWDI
- Test method notes: Binding inhibition of 125I-Tyr-hRFRP-3(8) to membrane fraction from human-type OT7T022-expressing CHO cells
- Stated conditions: room temperature 1.5 hr
Assay metric: IC50 (nM)
// units = nM; emit number, no label

State the recorded IC50 for this entry: H-ATANLPLRSGRNMEVSLVRRVPNLPQRF-NH2 [hRFRP-3 (28)] 1.6
